Molecular target: T1, Recombinant human leptin binding domain (hLBD) (human, UniProt P48357 428-635, biotinylated with Sulfo-NHS-LC-Biotin in the yeast display assays; not labelled when immobilized in the plate binding assay)
T1 construct: CRH2 sub-domain of the leptin receptor; Prepared in the applicants' laboratory; also called soluble human leptin receptor; CHR2
T1 sequence (looked up): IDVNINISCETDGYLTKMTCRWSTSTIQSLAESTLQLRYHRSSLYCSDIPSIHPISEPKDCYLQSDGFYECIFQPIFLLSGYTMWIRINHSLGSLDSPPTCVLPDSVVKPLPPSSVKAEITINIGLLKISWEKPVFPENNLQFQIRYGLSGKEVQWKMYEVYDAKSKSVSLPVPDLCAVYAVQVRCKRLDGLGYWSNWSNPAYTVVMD
Experiment: competitive plate binding assay: immobilized hLBD, biotinylated mouse leptin as ligand, mutein as competitor
Quantity name: fold increase in affinity as compared to the WT mouse leptin (fold)
Entry rule: numbers only, all in fold.

Look over these answered cases.
| Binder | Measured number |
| --- | --- |
| recombinant mouse leptin mutein H19 (D23G, T37A, G44D), agonist (ligand, mature) AVPIQKVQDDTKTLIKTIVTRINGISHTQSVSAKQRVAGLDFIPDLHPILSLSKMDQTLAVYQQVLTSLPSQNVLQIANDLENLRDLLHLLAFSKSCSLPQTSGLQKPESLDGVLEASLYSTEVVALSRLQGSLQDILQQLDVSPEC | 10.4 |
| recombinant mouse leptin mutein H15 (D23G, L68M, S97F, S132Y), agonist (ligand, mature) AVPIQKVQDDTKTLIKTIVTRINGISHTQSVSAKQRVTGLDFIPGLHPILSLSKMDQTLAVYQQVLTSMPSQNVLQIANDLENLRDLLHLLAFSKSCFLPQTSGLQKPESLDGVLEASLYSTEVVALSRLQGYLQDILQQLDVSPEC | 9.7 |
| recombinant mouse leptin mutein H16 (D23G, G112S), agonist (ligand, mature) AVPIQKVQDDTKTLIKTIVTRINGISHTQSVSAKQRVTGLDFIPGLHPILSLSKMDQTLAVYQQVLTSLPSQNVLQIANDLENLRDLLHLLAFSKSCSLPQTSGLQKPESLDSVLEASLYSTEVVALSRLQGSLQDILQQLDVSPEC | 20.3 |
| recombinant mouse leptin mutein H30 (D23H), agonist (ligand, mature) AVPIQKVQDDTKTLIKTIVTRINHISHTQSVSAKQRVTGLDFIPGLHPILSLSKMDQTLAVYQQVLTSLPSQNVLQIANDLENLRDLLHLLAFSKSCSLPQTSGLQKPESLDGVLEASLYSTEVVALSRLQGSLQDILQQLDVSPEC | 35 |

input: Returns the measured fold increase in affinity as compared to the WT mouse leptin for the input binder. Input: recombinant mouse leptin mutein H22 (T12I), agonist (ligand, mature) AVPIQKVQDDTKILIKTIVTRINDISHTQSVSAKQRVTGLDFIPGLHPILSLSKMDQTLAVYQQVLTSLPSQNVLQIANDLENLRDLLHLLAFSKSCSLPQTSGLQKPESLDGVLEASLYSTEVVALSRLQGSLQDILQQLDVSPEC
output: 11.7
